Test system: HSV1-F
experiment: HSV ELISA assay, strain HSV1-F
Format: cell-based, HSV-1
test-context: Human alphaherpesvirus 1
pEC50: −log10 of the molar value.
measure-name: pEC50

>>> observed_measurement("Nc1nc2c(ncn2COCCO)c(=O)[nH]1 [ACV, 9-(2-hydroxyethoxymethyl)guanine]")
6.15

###

System: HIV-1IIIB
experiment: Acute HIV infection assay (XTT, CEM cells)
test-context: inhibition of HIV
pIC50: −log10 of the molar value.
measure-name: pIC50

>>> observed_measurement("ISIS 4897: CAC GGG GTC GCC GAT, P = S, SEQ ID NO 31 (CACGGGGTCGCCGAT; all phosphorothioate, sugars by position and methylation of C not given here)")
6.37
>>> observed_measurement("ISIS 5674: TT GGGG TT GGGG, P = S, SEQ ID NO 41 (TTGGGGTTGGGG; all phosphorothioate, sugars by position not given here)")
6.37
>>> observed_measurement("ISIS 5653: TT GGGG TT GGGG TT GGGG, P = S, SEQ ID NO 38 (TTGGGGTTGGGGTTGGGG; all phosphorothioate, sugars by position not given here)")
6.92
